assay: WST-1 cytotoxicity assay, A549 cells; format: cell-based; conditions: human, A549 cells (human lung carcinoma epithelial cells)
Measured CC50 at 120 h accompanies every entry in the list below.

CC[C@H](CO)Nc1nc(NCc2ccccc2)c2ncn(C(C)C)c2n1 [Roscovitine, reference compound]; > 100 µM

Here is another compound to look at.
Q: Tell me measured CC50 at 120 h for CC[C@H](CO)Nc1nc(NCc2ccccc2O)c2ncn(C(C)C)c2n1 please.
A: > 100 µM

====

experiment: WST-1 cytotoxicity assay, A549 cells; format: cell-based; settings: human, A549 cells (human lung carcinoma epithelial cells)
endpointName: CC50 at 96 h

CC[C@H](CO)Nc1nc(NCc2ccccc2)c2ncn(C(C)C)c2n1 [Roscovitine, reference compound]; > 100 µM

Q: Tell me measured CC50 at 96 h for CC[C@H](CO)Nc1nc(NCc2ccccc2O)c2ncn(C(C)C)c2n1 please.
A: > 100 µM
